Reported IC50 values for a set of binders
# system tested: T1, IGF-1R (coated on Maxisorp plates) (UniProt P08069 31-932, limits assumed)
# T1 construct: also called the receptor
# T1 sequence (P08069 31-932 limits assumed): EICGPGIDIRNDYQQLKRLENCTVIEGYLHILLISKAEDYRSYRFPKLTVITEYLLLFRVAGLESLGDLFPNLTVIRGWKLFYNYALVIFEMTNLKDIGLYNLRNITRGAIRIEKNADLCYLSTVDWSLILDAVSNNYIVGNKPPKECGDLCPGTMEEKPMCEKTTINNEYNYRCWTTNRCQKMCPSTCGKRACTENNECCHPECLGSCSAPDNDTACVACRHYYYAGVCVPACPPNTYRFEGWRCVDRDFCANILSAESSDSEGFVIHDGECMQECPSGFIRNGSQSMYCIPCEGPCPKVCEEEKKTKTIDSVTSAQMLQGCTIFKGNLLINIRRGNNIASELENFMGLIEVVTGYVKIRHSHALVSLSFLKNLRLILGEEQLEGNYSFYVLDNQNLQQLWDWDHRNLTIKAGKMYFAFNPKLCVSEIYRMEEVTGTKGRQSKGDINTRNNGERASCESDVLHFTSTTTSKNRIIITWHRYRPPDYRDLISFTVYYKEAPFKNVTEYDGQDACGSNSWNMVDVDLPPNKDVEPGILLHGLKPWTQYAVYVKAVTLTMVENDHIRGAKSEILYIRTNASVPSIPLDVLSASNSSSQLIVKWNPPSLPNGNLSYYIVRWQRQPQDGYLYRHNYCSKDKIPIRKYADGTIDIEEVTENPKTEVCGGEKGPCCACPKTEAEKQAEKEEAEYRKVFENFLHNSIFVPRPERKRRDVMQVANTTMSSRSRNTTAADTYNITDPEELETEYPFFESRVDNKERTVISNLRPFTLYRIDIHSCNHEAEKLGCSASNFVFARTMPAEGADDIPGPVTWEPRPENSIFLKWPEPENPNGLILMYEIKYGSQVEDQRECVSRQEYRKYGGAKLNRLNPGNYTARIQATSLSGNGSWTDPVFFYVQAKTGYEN
# protocol notes: competition ELISA, plate-coated IGF-1R, antibody titrated against 20 ng/mL IGF-1 biotin
Reply with just the number (in µg/mL).

| binder | reported measurement |
| --- | --- |
| B10 antibody (antibody, V domains shown, Whole antibody) VH: QVELVESGGGVVQPGRSQRLSCAASGFTFSSYGMHWVRQAPGKGLEWVATIWFDGSSTYYADSVRGRFTISRDNSKNTLYLQMNSLRAEDTAVYFCARELGRRYFDLWGRGTLVSVSS VL: EIVLTQSPATLSLSPGERATLSCRASQSVSSYLAWYQQKPGQAPRLLIYDASKRATGIPARFSGSGSGTDFTLTISSLEPEDFAVYYCQQRSKYPPWTFGQGTKVESK | 0.395 |

# evaluate next
// IC50 lookup, binder = D03 antibody (antibody, V domains shown, Whole antibody; also called clone D03) VH: QVELVESGGGVVQPGRSQRLSCAASGFTFSSHGMHWVRQAPGKGLEWVAYIWFDGSSTYYADSVRGRFTISRDNSKNTLYLQMNSLRAEDTAVYFCARELGRRYFDLWGRGTLVSVSS VL: EIVLTQSPATLSLSPGERATLSCRASQSVSSALAWYQQKPGQAPRLLIYDASKRATGIPARFSGSGSGTDFTLTISSLEPEDFAVYYCQQRSKYPPWTFGQGTKVESK , result: 0.388
